Entry source: paper PMC4081096

Target: GtrS (Pseudomonas aeruginosa)
Sequence (Q9HZ47 30-197): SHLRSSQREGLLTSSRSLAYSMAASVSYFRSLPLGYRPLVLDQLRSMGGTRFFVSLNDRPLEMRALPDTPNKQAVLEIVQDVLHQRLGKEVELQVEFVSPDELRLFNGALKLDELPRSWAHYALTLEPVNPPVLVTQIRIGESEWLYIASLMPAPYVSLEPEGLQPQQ
Assay: isothermal titration calorimetry with purified recombinant GtrS-LBD
Assay type: binding
measured-metric: Kd (µM)
Unit µM implied. Number only.

[ask] Recall and state the measured Kd for O=C(O)[C@H](O)[C@@H](O)[C@H](O)[C@H](O)COP(=O)(O)O [6PG, 6-phosphogluconate] .
[reply] 98
